# MEASUREMENT_DESCRIPTION: M. tuberculosis growth inhibition, HTS (AID 449762);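 further: bacterial growth assessed after seven days of incubation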
# RUN_CONDITIONS: M. tuberculosis H37Rv growth inhibition, 7H9 media; at 25 µM; hits give high values
Among all 330,000 compounds or so, about 1,900 (0.58%) were called active. Roughly 4% stayed inconclusive and do not appear here. The list is a sample of the results. Results with a measured potency or affinity are listed apart.
The entries below come with measured inhibition values attached.
State just the number; it will be interpreted in %.

Answered cases to consult:
MOLECULE: O=C(NCCN1CCOCC1)C1CCCN(S(=O)(=O)c2ccc(F)cc2)C1 (stereo unspecified)
DISPLAY_UNIT: %
inhibition: -1.03
--
MOLECULE: COC(=O)c1ccc(COc2cc([N+](=O)[O-])cc3cccnc23)o1
DISPLAY_UNIT: %
inhibition: -2.4
--
MOLECULE: O=C(NN1CCOCC1)c1ccc(Cl)s1
DISPLAY_UNIT: %
inhibition: -0.84
--
MOLECULE: C(=N\Nc1nc2ccccc2[nH]1)/c1ccccc1
DISPLAY_UNIT: %
inhibition: 33.3
--
MOLECULE: CCN1CCN(C2CCCCC2NS(=O)(=O)c2ccccc2)CC1 (stereo unspecified)
DISPLAY_UNIT: %
inhibition: -5.99
--
MOLECULE: Cn1c(=O)c2ccccc2n2c(CCl)nnc12
DISPLAY_UNIT: %
inhibition: 26.5

What value of measured inhibition is listed for "CCCCCn1c(=O)c2ccccc2n2c(=S)[nH]nc12" ? -1.55

Another molecule to look at: Cn1cc(CCNC(=O)CC2C(=O)NCCN2Cc2cccc(Oc3ccccc3)c2)cn1 (stereo unspecified) 2.08

Also "Cc1ccc(C(=O)/C=C/Nc2ccc(S(=O)(=O)Nc3cc(C)nc(C)n3)cc2)cc1" ? 4.23

Would you mind doing "Nc1ccc(Nc2ccc([N+](=O)[O-])cc2[N+](=O)[O-])cc1" as well? 4.35

Now this one: "COC(=O)c1ccc(COc2cc([N+](=O)[O-])cc3cccnc23)cc1" 3.92
